CK activity value values, listed per item
Molecular target: creatine kinase (CK) in human serum (Homo sapiens, UniProt P06732)
Construct: Five fresh human serum samples were used; from tissue; host or cells: fresh human serum
Sequence (P06732 whole entry): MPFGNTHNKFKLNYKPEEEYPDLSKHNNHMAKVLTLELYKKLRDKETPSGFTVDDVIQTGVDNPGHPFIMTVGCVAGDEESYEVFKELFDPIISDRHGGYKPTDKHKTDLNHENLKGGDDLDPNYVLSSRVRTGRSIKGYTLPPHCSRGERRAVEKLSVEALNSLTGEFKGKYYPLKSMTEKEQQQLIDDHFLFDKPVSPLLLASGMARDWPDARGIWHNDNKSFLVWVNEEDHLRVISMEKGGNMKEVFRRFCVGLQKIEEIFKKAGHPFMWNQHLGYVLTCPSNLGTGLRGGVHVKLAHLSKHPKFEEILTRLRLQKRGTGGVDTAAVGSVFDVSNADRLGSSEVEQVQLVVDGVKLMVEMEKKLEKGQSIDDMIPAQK
Assay: Inhibitory effect of oxidized products of SH compounds on CK activity (HK/G6PDH UV method, NAC 26 mM as reactivator)
Assay type: biochemical
Details: Sample 1 (fresh human serum); 5 mM SH compound oxidized product, NAC 26 mM, 37° C.

{"Molecule Smiles": "O=c1ccnc(SSc2nccc(=O)[nH]2)[nH]1", "Target Entity": "creatine kinase (CK) in human serum (Homo sapiens, UniProt P06732)", "Value Units": "IU/l.", "CK activity value": 143}
{"Molecule Smiles": "OC[C@H]1O[C@@H](SS[C@@H]2O[C@H](CO)[C@@H](O)[C@H](O)[C@H]2O)[C@H](O)[C@@H](O)[C@@H]1O", "Target Entity": "creatine kinase (CK) in human serum (Homo sapiens, UniProt P06732)", "Value Units": "IU/l.", "CK activity value": 136}
{"Molecule Smiles": "O=S(=O)(O)CCSSCCS(=O)(=O)O", "Target Entity": "creatine kinase (CK) in human serum (Homo sapiens, UniProt P06732)", "Value Units": "IU/l.", "CK activity value": 155}
{"Molecule Smiles": "OCCSSCCO", "Target Entity": "creatine kinase (CK) in human serum (Homo sapiens, UniProt P06732)", "Value Units": "IU/l.", "CK activity value": 155}
{"Molecule Smiles": "c1ccc(SSc2ccccc2)cc1", "Target Entity": "creatine kinase (CK) in human serum (Homo sapiens, UniProt P06732)", "Value Units": "IU/l.", "CK activity value": 73}
{"Molecule Smiles": "CC(=O)N[C@@H](CSSC[C@H](NC(C)=O)C(=O)O)C(=O)O", "Target Entity": "creatine kinase (CK) in human serum (Homo sapiens, UniProt P06732)", "Value Units": "IU/l.", "CK activity value": 124}

Origin of the recorded values: patent US5716797A
